- PROCEDURE TEXT: Volume of distribution at steady state in two-compartment pharmacokinetic/pharmacodynamic model at 200 mg, bid administered as 0.5 hrs infusion
- Type: ADME, organism-based
- REPORTED CONDITIONS: iv, read-out: Vdss

{"columns": ["COMPOUND", "UOM", "Vd"],
 "data": [
  ["CC(=O)NC[C@H]1CN(c2ccc(N3CCOCC3)c(F)c2)C(=O)O1 [LINEZOLID]", "L", 120]
]}

###

- PROCEDURE TEXT: Tmax in two-compartment pharmacokinetic/pharmacodynamic model at 600 mg, bid administered as 0.5 hr infusion over 24 hrs
- Assay type: ADME, organism-based
- REPORTED CONDITIONS: iv

{"columns": ["COMPOUND", "UOM", "Tmax"],
 "data": [
  ["CC(=O)NC[C@H]1CN(c2ccc(N3CCOCC3)c(F)c2)C(=O)O1 [LINEZOLID]", "min", 30]
]}
